Kindly state kon for each of the entries shown.
# measured-on: T1, soluble human GPNMB (recombinant extracellular domain) (human, UniProt Q14956 23-498)
# T1 construct: also called huGPNMB; recombinant human GPNMB extracellular domain; not shown: C-terminal polyhistidine or Avi-His tag
# T1 sequence: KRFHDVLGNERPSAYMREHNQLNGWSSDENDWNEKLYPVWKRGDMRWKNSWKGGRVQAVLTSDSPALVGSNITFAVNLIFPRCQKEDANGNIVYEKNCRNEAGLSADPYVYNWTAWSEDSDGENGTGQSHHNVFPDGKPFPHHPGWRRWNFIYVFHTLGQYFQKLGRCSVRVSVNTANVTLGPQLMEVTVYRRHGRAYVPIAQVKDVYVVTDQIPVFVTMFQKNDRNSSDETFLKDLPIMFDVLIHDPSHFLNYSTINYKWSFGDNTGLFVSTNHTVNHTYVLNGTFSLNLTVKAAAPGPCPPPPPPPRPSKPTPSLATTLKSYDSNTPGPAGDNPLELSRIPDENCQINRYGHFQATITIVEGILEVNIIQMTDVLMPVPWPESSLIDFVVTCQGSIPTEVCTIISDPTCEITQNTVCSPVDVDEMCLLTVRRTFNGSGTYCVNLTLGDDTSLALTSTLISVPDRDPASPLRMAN
# assay-info: SPR Biacore, IgG captured
Kindly report the value followed by its unit.

binder: anti-GPNMB antibody GPN-92 (antibody, V domains shown, humanized GPN-08) VH: QVQLVQSGAEVKKPGASVKVSCKASGYTFTSYWMHWVRQAPGQGLEWMGEINPSDGRTNYAQKFQGRVTMTVDKSTSTVYMELSSLRSEDTAVYYCARSGGNYAWFAYWGQGTLVTVSS VL: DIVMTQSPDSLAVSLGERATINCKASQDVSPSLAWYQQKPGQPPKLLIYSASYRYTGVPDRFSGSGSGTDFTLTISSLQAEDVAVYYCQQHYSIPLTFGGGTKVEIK
kon: 75000 M⁻¹ s⁻¹

binder: anti-GPNMB antibody GPN-94 (antibody, V domains shown) VH: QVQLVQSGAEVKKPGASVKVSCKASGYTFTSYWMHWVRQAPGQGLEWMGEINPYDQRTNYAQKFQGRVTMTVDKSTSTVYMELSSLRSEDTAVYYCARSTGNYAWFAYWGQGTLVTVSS VL: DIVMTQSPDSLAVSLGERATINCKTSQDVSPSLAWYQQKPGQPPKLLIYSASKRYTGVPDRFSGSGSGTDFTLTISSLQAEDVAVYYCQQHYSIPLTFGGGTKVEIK
kon: 78000 M⁻¹ s⁻¹

binder: anti-GPNMB antibody GPN-98 (antibody, V domains shown) VH: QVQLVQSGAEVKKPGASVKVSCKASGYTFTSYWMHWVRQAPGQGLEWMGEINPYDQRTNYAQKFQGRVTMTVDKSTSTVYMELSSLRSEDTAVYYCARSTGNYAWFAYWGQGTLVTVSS VL: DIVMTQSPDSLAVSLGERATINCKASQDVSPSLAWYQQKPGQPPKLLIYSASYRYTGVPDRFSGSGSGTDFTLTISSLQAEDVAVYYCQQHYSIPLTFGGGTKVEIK
kon: 76000 M⁻¹ s⁻¹

[Q] Tell us which kon value is on record for anti-GPNMB antibody GPN-91 (antibody, V domains shown) VH: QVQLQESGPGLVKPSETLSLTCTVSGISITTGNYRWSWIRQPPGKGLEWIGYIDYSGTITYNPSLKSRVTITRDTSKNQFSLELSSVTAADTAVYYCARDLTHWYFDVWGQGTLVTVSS VL: DIVMTQSPDSLAVSLGERATINCKSSRSVDYYGIGFLNWYQQKPGQPPKLLIYATSHQGSGVPDRFSGSGSGTDFTLTISSLQAEDVAVYYCQQQKERPPTFGGGTKVEIK
[A] 180000 M⁻¹ s⁻¹
